Target: CREBBP (1084-1701) (Homo sapiens, UniProt Q92793)
Construct: measured in the following biochemical assay using CREBBP (1084-1701); purchased
Sequence (Q92793 1084-1701): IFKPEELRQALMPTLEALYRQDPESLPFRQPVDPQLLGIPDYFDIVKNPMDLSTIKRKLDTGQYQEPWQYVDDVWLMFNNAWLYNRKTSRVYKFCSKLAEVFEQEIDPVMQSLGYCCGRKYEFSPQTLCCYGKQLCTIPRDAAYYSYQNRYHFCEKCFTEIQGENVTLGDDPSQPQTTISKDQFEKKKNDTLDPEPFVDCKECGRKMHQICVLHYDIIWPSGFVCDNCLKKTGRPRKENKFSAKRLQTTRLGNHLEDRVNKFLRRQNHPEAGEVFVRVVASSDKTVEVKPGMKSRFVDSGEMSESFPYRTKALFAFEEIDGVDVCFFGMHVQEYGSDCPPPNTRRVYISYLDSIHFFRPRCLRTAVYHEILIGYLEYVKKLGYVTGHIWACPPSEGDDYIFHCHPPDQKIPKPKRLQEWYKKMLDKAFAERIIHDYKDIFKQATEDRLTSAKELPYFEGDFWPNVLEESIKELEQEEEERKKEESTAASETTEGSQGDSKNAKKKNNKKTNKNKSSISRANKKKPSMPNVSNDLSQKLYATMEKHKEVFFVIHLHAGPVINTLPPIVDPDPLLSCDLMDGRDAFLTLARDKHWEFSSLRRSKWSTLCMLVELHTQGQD
Assay: Biochemical assay for CREBBP (1084-1701), SAMDI
Settings: SAMDI, read-out: CREBBP Biochemistry IC50
pIC50: −log10 of the molar value.
Below, each entry is listed with its recorded pIC50.

{"COMPOUND": "CCn1ncc(CN(C)C(=O)c2cc(-c3cccc(C#N)c3)nc3ccc(Cl)cc23)c1C", "pIC50": 4.57}
{"COMPOUND": "CCn1ncc([C@@H](C)N(C)C(=O)c2cc(-c3ccc(NCCN(C)C)c(C)n3)nc3ccc(Cl)cc23)c1C", "pIC50": 7.22}
{"COMPOUND": "CCc1ncc(CN(C)C(=O)c2cc(-c3ccc(N(C)C4CN(C)C4)c(C)n3)nc3ccc(Cl)cc23)n1C", "pIC50": 6.94}
{"COMPOUND": "CCn1ncc(CN(C)C(=O)c2nc(-c3cc(C(=O)NC4CCN(C)CC4)nn3C)nc3ccc(Cl)cc23)c1C", "pIC50": 4.49}
{"COMPOUND": "CCc1ncc(CN(C)C(=O)c2cc(-c3ccc(NCC(O)CN(C)C)c(C)n3)nc3ccc(Cl)cc23)n1C (centres unmarked)", "pIC50": 7.54}
{"COMPOUND": "CCn1ncc(CN(C)C(=O)c2nc(-c3cc4c(NC)noc4cc3C)nc3ccc(Cl)cc23)c1C", "pIC50": 7.74}
{"COMPOUND": "CCc1ncc(CN(C)C(=O)c2cc(-c3ccc(NCCNC)c(C)n3)nc3ccc(COC)cc23)n1C", "pIC50": 7.16}
{"COMPOUND": "CCc1noc(C(C)N(C)C(=O)c2nc(-c3ccc(NCCN(C)C)c(C)c3)nc3ccc(Cl)cc23)c1C (centres unmarked)", "pIC50": 7.52}
{"COMPOUND": "CCn1ncc(CN(C)C(=O)c2nc(-c3ccccc3C)nc3ccc(Cl)cc23)c1C", "pIC50": 6.15}
{"COMPOUND": "CCc1ncc(CN(C)C(=O)c2cc(-c3ccc(NC4CN(C(C)=O)C4)c(C)n3)nc3ccc(Cl)cc23)n1C", "pIC50": 7.46}
{"COMPOUND": "Cc1nc(-c2cc(C(=O)N(C)Cc3cnc(C(F)(F)F)n3C)c3cc(Cl)ccc3n2)ccc1NCCN(C)C", "pIC50": 6.98}

###

Below, each entry is listed with its recorded IC50.
Tested on: H3K18Ac in HB-CLS-2 cells
Assay: H3K18AC in-cell western (ICW) assay
Type: cell-based
Conditions: H3K18Ac in-cell western; read-out: CREBBP ICW IC50

{"COMPOUND": "CCn1ncc(CN(C)C(=O)c2nc(-c3ccc4c[nH]nc4c3Cl)nc3ccc(COC)cc23)c1C [Compound 68]", "IC50": "0.8 µM"}
{"COMPOUND": "CCn1ncc(CN(C)C(=O)c2nc(-c3ccc(OCCC(=O)NC)c(OC)c3)nc3ccc(Cl)cc23)c1C", "IC50": "5.3 µM"}
{"COMPOUND": "CCn1ncc(CN(C)C(=O)c2nc(-c3cc(-c4ncon4)n(C)n3)nc3ccc(Cl)cc23)c1C", "IC50": "20 µM"}

###

Biological target: CREBBP (1084-1701) (Homo sapiens, UniProt Q92793)
Construct: measured in the following biochemical assay using CREBBP (1084-1701); purchased
Assay: Biochemical assay for CREBBP (1084-1701), SAMDI
Conditions: SAMDI, read-out: CREBBP Biochemistry IC50
// class assignment uses IC50 with these ranges: lower range: < 1 µM; middle range: ≥ 1 µM and < 9 µM; upper range: ≥ 9 µM

{"SMILES_INPUT": "CCn1ncc(CN(C)C(=O)c2cc(-c3ccccc3)nc3ccc(Cl)cc23)c1C", "EXPERIMENTAL_TARGET": "CREBBP (1084-1701) (Homo sapiens, UniProt Q92793)", "CLASS_LABEL": "middle range"}
{"SMILES_INPUT": "CCn1ncc(CN(C)C(=O)c2nc(-c3cc(C(=O)NCCCN4CCCC4)n(Cc4ccc(OC)cc4)n3)nc3ccc(Cl)cc23)c1C", "EXPERIMENTAL_TARGET": "CREBBP (1084-1701) (Homo sapiens, UniProt Q92793)", "CLASS_LABEL": "upper range"}
{"SMILES_INPUT": "CCn1ncc(CN(C)C(=O)c2cc(-c3ccc(NCCNC)c(C)n3)nc3ccc(COC)cc23)c1C", "EXPERIMENTAL_TARGET": "CREBBP (1084-1701) (Homo sapiens, UniProt Q92793)", "CLASS_LABEL": "lower range"}
{"SMILES_INPUT": "CCn1ncc(CN(C)C(=O)c2nc(-c3cc4[nH]ncc4nc3C)nc3ccc(Cl)cc23)c1C", "EXPERIMENTAL_TARGET": "CREBBP (1084-1701) (Homo sapiens, UniProt Q92793)", "CLASS_LABEL": "middle range"}
{"SMILES_INPUT": "CCn1ncc(CN(C)C(=O)c2nc(-c3cc(Cl)cc(NCCCNC)c3)nc3ccc(Cl)cc23)c1C", "EXPERIMENTAL_TARGET": "CREBBP (1084-1701) (Homo sapiens, UniProt Q92793)", "CLASS_LABEL": "lower range"}
{"SMILES_INPUT": "CCn1ncc(CN(C)C(=O)c2nc(-c3ccnc(NC(C)=O)c3)nc3ccc(Cl)cc23)c1C", "EXPERIMENTAL_TARGET": "CREBBP (1084-1701) (Homo sapiens, UniProt Q92793)", "CLASS_LABEL": "middle range"}
{"SMILES_INPUT": "CCn1ncc(CN(C)C(=O)c2nc(-c3cc(C(=O)NCCN4CCCC4)[nH]n3)nc3ccc(Cl)cc23)c1C", "EXPERIMENTAL_TARGET": "CREBBP (1084-1701) (Homo sapiens, UniProt Q92793)", "CLASS_LABEL": "middle range"}
{"SMILES_INPUT": "CCn1ncc(CN(C)C(=O)c2nc(-c3cc(C)nc(CNC)c3)nc3ccc(Cl)cc23)c1C", "EXPERIMENTAL_TARGET": "CREBBP (1084-1701) (Homo sapiens, UniProt Q92793)", "CLASS_LABEL": "upper range"}
{"SMILES_INPUT": "CCN(Cc1cnn(CC)c1C)C(=O)c1nc(-c2cccc(Cl)c2)nc2ccc(Cl)cc12", "EXPERIMENTAL_TARGET": "CREBBP (1084-1701) (Homo sapiens, UniProt Q92793)", "CLASS_LABEL": "lower range"}
{"SMILES_INPUT": "CCN(Cc1cnn(CC)c1C)C(=O)c1cc(-c2cccc(Cl)c2)nc2ccc(Cl)cc12", "EXPERIMENTAL_TARGET": "CREBBP (1084-1701) (Homo sapiens, UniProt Q92793)", "CLASS_LABEL": "middle range"}
{"SMILES_INPUT": "CCn1ncc(CN(C)C(=O)c2cc(-c3cccc(Cl)c3)nc3ccc(OC)cc23)c1C", "EXPERIMENTAL_TARGET": "CREBBP (1084-1701) (Homo sapiens, UniProt Q92793)", "CLASS_LABEL": "upper range"}
{"SMILES_INPUT": "CCn1ncc(CN(C)C(=O)c2nc(-c3nn(C)c(C(=O)NC)c3Cl)nc3ccc(Cl)cc23)c1C", "EXPERIMENTAL_TARGET": "CREBBP (1084-1701) (Homo sapiens, UniProt Q92793)", "CLASS_LABEL": "upper range"}
